The origin of these recorded values is patent US20040018971A1.

# Target Under Test: T1, HLA-A*0201 (human)
# T1 construct: also called HLA-A2.1
# Protocol Summary: competition for purified HLA vs 125I-labelled probe peptide, gel filtration
Measurement Type: pIC50
Expect pIC50 as a plain number equal to -log10 of the molar concentration.

Answered examples (3):
binder="KTFGSLAFV (analog of Her2/neu.369) [Her2/neu.369.T2V9]" measurement_type=pIC50 measured_number=7.46
binder="VLIQRNPQV (analog of Her2/neu.153) [Her2/neu.153.V9]" measurement_type=pIC50 measured_number=7.26
binder="YLIMVKCWMV (analog of Her2/neu.952 (10-mer)) [Her2/neu.952.L2V10]" measurement_type=pIC50 measured_number=7.89

For the binder shown here, SLISAVVGV (analog of Her2/neu.653) [Her2/neu.653.L2V9] , give the reported pIC50.
8.15
